Hello, the source for this data is ChEMBL document CHEMBL2203179, in case you need it.

Measured pIC50 values are reported for all entries that follow.
# assayName: Antiproliferative activity against human A375P cells
# Assay type: functional, cell-based
Scale note: pIC50 = -log10(concentration in M).

Cc1ccc(NC(=O)Nc2cc(C(F)(F)F)cc(C(F)(F)F)c2)cc1NC(=O)c1ccccc1 = 6.79
CC(=O)Nc1cc(NC(=O)Nc2cc(C(F)(F)F)cc(C(F)(F)F)c2)ccc1C = 6.16
CC(=O)Nc1cc(NC(=O)Nc2ccc(Cl)nc2)ccc1C = 5.96

Query: Report pIC50 for CC(=O)Nc1cc(NC(=O)Nc2ccc(Cl)c(Cl)c2)ccc1C please.
Response: 5.68

---

# assayName: Antiproliferative activity against human A375P cells
# Format: functional, cell-based
pIC50: −log10 of the molar value.
compounds and their reported pIC50

The following compounds have reported results that may help.
Cc1ccc(NC(=O)Nc2cccc(Oc3ccccc3)c2)cc1NC(=O)c1ccccc1 = < 4.52
Cc1ccc(NC(=O)Nc2ccc(C)c(NC(=O)c3ccccc3)c2)cc1C = < 4.52
Cc1cc(C(=O)Nc2ccc(C)c(NC(=O)c3ccccc3)c2)no1 = < 4.52
Cc1ccc(NC(=O)Nc2ccccc2Cl)cc1NC(=O)c1ccccc1 = < 4.52
CC(=O)Nc1cc(NC(=O)Nc2ccc(Cl)c(C(F)(F)F)c2)ccc1C = 5.96

Continue with the compound presented below.
Query: Which measured pIC50 value corresponds to Cc1ccc(NC(=O)Nc2ccc3c(c2)OCO3)cc1NC(=O)c1ccccc1 ?
Response: < 4.52

---

# assayName: Antiproliferative activity against human A375P cells
# Assay type: functional, cell-based
observable: pIC50
// pIC50 is dimensionless: -log10 of concentration (M)

Cc1ccc(NC(=O)Nc2ccc(Cl)c(Cl)c2)cc1NC(=O)c1ccccc1 = 5.24
Cc1ccc(NC(=O)Nc2cc(Cl)cc(Cl)c2)cc1NC(=O)c1ccccc1 = 6.59
CC(=O)Nc1cc(NC(=O)Nc2cccc(C(C)=O)c2)ccc1C = 4.66

API: the following record is the query input.
Query: Please look up its pIC50: CC(=O)c1cccc(NC(=O)Nc2ccc(C)c(NC(=O)c3ccccc3)c2)c1
Response: 5.01

---

# assayName: Antiproliferative activity against human A375P cells
# Format: functional, cell-based
Listed compounds paired with reported IC50

Cc1ccc(NC(=O)Nc2cc(F)cc(C(F)(F)F)c2)cc1NC(=O)c1ccccc1 = > 30 µM
CC(=O)Nc1cc(NC(=O)c2ccc(Cl)c(C(F)(F)F)c2)ccc1C = > 30 µM
CNC(=O)c1cc(Oc2ccc(NC(=O)Nc3ccc(Cl)c(C(F)(F)F)c3)cc2)ccn1 = 2.7 µM
CC(=O)Nc1cc(NC(=O)c2cc(C(F)(F)F)cc(C(F)(F)F)c2)ccc1C = > 30 µM
Cc1ccc(NC(=O)Nc2ccc(Cl)nc2)cc1NC(=O)c1ccccc1 = 1.6 µM

Query: Need IC50 of CC(=O)Nc1cc(NC(=O)Nc2ccc3c(c2)OCCO3)ccc1C , thanks.
Response: > 30 µM

Query: Sample Cc1ccc(NC(=O)c2cc(C(F)(F)F)cc(C(F)(F)F)c2)cc1NC(=O)c1ccccc1 — what was its IC50?
Response: > 30 µM

Query: Need IC50, item CC(=O)Nc1cc(NC(=O)Nc2cc(Cl)cc(Cl)c2)ccc1C
Response: 0.561 µM

Query: What value of IC50 has been recorded for this entry: CC(=O)Nc1cc(NC(=O)Nc2ccccc2Cl)ccc1C
Response: > 30 µM

Query: Looking for the measured IC50 of CC(=O)Nc1cc(NC(=O)Nc2ccc3c(c2)OCO3)ccc1C , can you help?
Response: > 30 µM
